Tested on: HepG2-CANX-COX4
ASSAY_REMARKS: phenotypically active (imaging signature differs from DMSO and reproducible) at any of 0.3-9 uM (binary (1 = active, 0 = inactive)); higher = active
CONDITION_CONTEXT: treatment time: 24 h
Structures can show the parent of a compound that is named as a salt.
Outcomes: active, inactive

INSERT INTO assay_data (compound, discrete_label) VALUES
  ('C=C1C(=O)O[C@@H]2C=C(C)CCC=C(C)CC[C@@H]12 [Costunolide]', 'active'),
  ('CC[N+](CC)(CC)CCOc1cccc(OCC[N+](CC)(CC)CC)c1OCC[N+](CC)(CC)CC [gallamine-triethiodide]', 'inactive'),
  ('CC(Oc1ccc(O)cc1)(P(=O)(O)O)P(=O)(O)O', 'inactive'),
  ('COc1ccc(C[C@H](N)C(=O)N[C@H]2[C@@H](O)[C@H](n3cnc4c(N(C)C)ncnc43)O[C@@H]2CO)cc1 [Puromycin dihydrochloride]', 'active'),
  ('O=C(NOC[C@H](O)CO)c1ccc(F)c(F)c1Nc1ccc(I)cc1F', 'active'),
  ('COC(=O)C1=CO[C@@H](C)[C@H]2CN3CCc4c([nH]c5ccccc45)[C@@H]3C[C@H]12 [Ajmalicine hydrochloride]', 'active'),
  ('O=C(Nc1nc2cc(C(F)(F)F)cc(NC3CC3)n2n1)c1cccnc1', 'active'),
  ('CCCCC1C(=O)N(c2ccccc2)N(c2ccc(O)cc2)C1=O (stereo not drawn)', 'inactive'),
  ('COc1cc2c(NC3CCN(C(C)C)CC3)nc(N3CCC(F)(F)CC3)nc2cc1OCCCN1CCCC1', 'active'),
  ('Cn1cnc([N+](=O)[O-])c1Sc1ncnc2nc[nH]c12', 'inactive'),
  ('O=c1[nH]cnc2ccccc12', 'inactive'),
  ('CC1(C(=O)O)CCC2(C)CCC3(C)C(=CC(=O)C4C5(C)CCC(OC6OC(C(=O)O)C(O)C(O)C6OC6OC(C(=O)O)C(O)C(O)C6O)C(C)(C)C5CCC43C)C2C1 (stereo not drawn)', 'inactive'),
  ('Cc1occc(=O)c1O [3-hydroxy-2-methyl-4-pyrone]', 'inactive'),
  ('CN1CCN(c2ccc(OC(F)(F)F)c(Nc3ncc4c(n3)-c3c(c(C(N)=O)nn3CCO)CC4)c2)CC1', 'active'),
  ('O=C(NCCO)c1cc(C(=O)NCCO)cc(C(=O)NCCO)c1', 'inactive'),
  ('O=c1cc(-c2ccccc2)oc2cc(O)cc(O)c12', 'inactive'),
  ('COc1cc2nc(N3CCN(C(=O)c4ccco4)CC3)nc(N)c2cc1OC', 'active'),
  ('CCCCNNC(=O)c1ccc(Br)cc1', 'active'),
  ('CN([C@H]1c2cc(OCCCC(F)(F)F)ccc2OC(C)(C)[C@@H]1O)S(C)(=O)=O', 'inactive'),
  ('O=C1NCCCC1C(=O)NCCc1c[nH]c2ccc(O)cc12 (stereo not drawn)', 'inactive'),
  ('NC(=O)c1ccc(I)c([N+](=O)[O-])c1', 'inactive'),
  ('O=C(O)[C@H](Cc1c[nH]c2ccccc12)N1C(=O)c2ccccc2C1=O', 'inactive'),
  ('N[C@@H](CSC(c1ccccc1)(c1ccccc1)c1ccccc1)C(=O)O', 'inactive'),
  ('CC1=C(/C=C/C(C)=C\C=C\C(C)=C\C(=O)O)C(C)(C)CCC1', 'active'),
  ('CN(C)CCOC(c1ccc(Cl)cc1)c1ccccn1 (stereo not drawn)', 'inactive'),
  ('O=C(Nc1cccnn1)N1CCN(c2nccc(-c3ccc(F)c(F)c3)n2)CC1', 'inactive'),
  ('COc1cc2c(NC3CCN(C(C)C)CC3)nc(C3CCCCC3)nc2cc1OCCCN1CCCC1', 'active'),
  ('CCCCCCOc1cc2c(cc1N(C)c1ncc(C(=O)O)cn1)C(C)(C)CCC2(C)C', 'inactive'),
  ('COc1ccc([C@@H]2CC(=O)c3c(O)cc(O)cc3O2)cc1O', 'inactive'),
  ('C[C@]12CC[C@@H]3c4ccc(O)cc4CC[C@H]3[C@@H]1CCC2=O', 'inactive'),
  ('Cc1ccc(-n2sc3ccccc3c2=O)cc1', 'active'),
  ('O=C(O)c1cccc(C(=O)O)n1', 'inactive'),
  ('O=C(CCc1ccc(O)cc1)c1c(O)cc(O)cc1O[C@@H]1O[C@H](CO)[C@@H](O)[C@H](O)[C@H]1O', 'inactive'),
  ('COc1cc(OC)c2cc(-c3ccncc3)cnc2c1 [DMPQ dihydrochloride]', 'active'),
  ('CN(C)C1CCN(C(=O)c2ccc(NC(=O)Nc3ccc(-c4nc(N5CCOCC5)nc(N5CCOCC5)n4)cc3)cc2)CC1', 'active'),
  ('N#Cc1c(NC(=O)c2cccc3ccccc23)sc2c1CCCC2', 'active'),
  ('CC(C)(C)c1cc(NC(=O)Nc2ccc(-c3cn4c(n3)sc3cc(OCCN5CCOCC5)ccc34)cc2)no1', 'inactive'),
  ('CC(C)C[C@H](NC(=O)OCC1c2ccccc2-c2ccccc21)C(=O)O', 'inactive');
